Reported values of kon for individual entries
measurementTarget: T1, recombinant human ASM protein (human, UniProt P17405 47-630)
T1 construct: Recombinant human ASM in solution; also called acid sphingomyelinase (ASM) protein
T1 sequence: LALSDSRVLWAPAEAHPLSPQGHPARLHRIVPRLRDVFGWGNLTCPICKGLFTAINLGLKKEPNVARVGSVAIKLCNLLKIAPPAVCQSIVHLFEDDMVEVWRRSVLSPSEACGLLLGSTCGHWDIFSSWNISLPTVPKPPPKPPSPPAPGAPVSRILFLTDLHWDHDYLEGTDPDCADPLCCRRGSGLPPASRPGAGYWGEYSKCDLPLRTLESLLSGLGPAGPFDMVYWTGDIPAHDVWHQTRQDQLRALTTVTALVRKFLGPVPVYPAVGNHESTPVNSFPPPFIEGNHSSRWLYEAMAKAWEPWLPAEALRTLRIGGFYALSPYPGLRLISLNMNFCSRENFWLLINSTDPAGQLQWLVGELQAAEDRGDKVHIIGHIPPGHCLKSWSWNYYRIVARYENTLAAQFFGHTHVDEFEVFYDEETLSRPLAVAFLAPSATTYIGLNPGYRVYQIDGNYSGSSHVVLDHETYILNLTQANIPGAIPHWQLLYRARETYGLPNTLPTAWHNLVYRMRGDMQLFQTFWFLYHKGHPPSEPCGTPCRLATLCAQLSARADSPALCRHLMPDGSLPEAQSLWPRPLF
experimentNotes: BLI (Octet), antibody on AHC sensor

binder | kon / M⁻¹ s⁻¹
#9104v-L20 (antibody, human IgG4 S228P, lambda, V domains shown, Full-length IgG, lambda) VH: EVQLLESGGGLVQPGGSLRLSCAASGFTFSNYYMSWVRQAPGKGLEWVSGIYYGSGNIYYADSVKGRFTISRDNSKNTLYLQMNSLRAEDTAVYYCARDTPGFDYWGQGTLVTVSS VL: QSVLTQPPSASGTPGQRVTISCTGSSSNIGNNAVNWYQQLPGTAPKLLIYYDMFRPGGVPDRFSGSKSGTSASLAISGLRSEDEADYYCGAWDYSLSAYVFGGGTKLTVLG | 247000
#9104v-L38 (antibody, human IgG4 S228P, lambda, V domains shown, Full-length IgG, lambda) VH: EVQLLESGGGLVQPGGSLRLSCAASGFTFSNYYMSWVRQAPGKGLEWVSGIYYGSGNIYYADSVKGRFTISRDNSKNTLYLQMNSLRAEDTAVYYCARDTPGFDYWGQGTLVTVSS VL: QSVLTQPPSASGTPGQRVTISCTGSSSNIGNNAVNWYQQLPGTAPKLLIYYDSYRPFGVPDRFSGSKSGTSASLAISGLRSEDEADYYCGAWDYSLSAYVFGGGTKLTVLG | 191000
#9104v-L49 (antibody, human IgG4 S228P, lambda, V domains shown, Full-length IgG, lambda) VH: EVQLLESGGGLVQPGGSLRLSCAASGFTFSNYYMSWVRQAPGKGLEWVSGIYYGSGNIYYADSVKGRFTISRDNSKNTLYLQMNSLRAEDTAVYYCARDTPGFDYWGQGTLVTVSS VL: QSVLTQPPSASGTPGQRVTISCTGSSSNIGNNAVNWYQQLPGTAPKLLIYYDTFRPTGVPDRFSGSKSGTSASLAISGLRSEDEADYYCGAWDYSLSAYVFGGGTKLTVLG | 286000

Ref: patent US20260201064A1
